Task for the reader: assign each of the following compounds its reported composite z-score.
System: Inhibin beta A chain (activin A)
Test: small molecules binding activin A – biochemical, small-molecule microarray, 635 nm fluorescence scan, primary screen (AID 1107);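 further: mouse activin A protein probed at 4.33 µg/mL on printed slides; score merges bound-protein fluorescence near 667 nm with spot signal-to-noise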
Conditions: INHBA, higher = more signal
Numbers only.

COMPOUND	ASSAYED SYSTEM	MEASURED VALUE
COc1ccc([Si](C)(C)[C@@H]2[C@@H](CC(=O)N(CCO)Cc3ccccc3)O[C@]3(C(=O)N(Cc4ccc(I)cc4)c4ccccc43)[C@H]2C)cc1	Inhibin beta A chain (activin A)	1.58
CN(C)CCCNC(=O)[C@@H]1c2ccccc2C(=O)N(Cc2ccccc2C(F)(F)F)[C@H]1c1ccc(CO)cc1	Inhibin beta A chain (activin A)	0.764
CCCCCC1=C2CNC(CC(C)C)(C(=O)OC)C=C2C(C)C1=O (stereo not drawn)	Inhibin beta A chain (activin A)	1.23

Quick batch: composite z-score for everything below.
1. C=C(CCCC)/C(=C/C[C@H](OC(=O)c1ccncc1)c1cccc(OCCO)c1)c1cnc2ccccc2c1
2. COCCOC(=O)N1C(=O)[C@@]2(c3cc(C#CCNC(N)=O)ccc31)[C@H](C(=O)Nc1nc3ccccc3s1)[C@H]1C(=O)O[C@H](c3ccccc3)[C@H](c3ccccc3)N1[C@@H]2c1ccccc1OCCO
3. CC1CC/C=C\[C@H]2OC34C=CCN(c5ccc(Cl)cc5)C(=O)[C@H]3N(CCCCCCO)C(=O)[C@]4(C)C2C(=O)O1 (stereo partly drawn)
4. C=CC[C@@]12N=C(c3ccc(OCCCO)cc3)O[C@@H]1c1ccccc1N(CCC)C2=O

**A:**
1.6
1.22
0.0845
1.19

Please go through the list and note composite z-score for each compound.
1. CN(C)CCCNC(=O)[C@@]1(C)c2ccccc2C(=O)N(Cc2ccc(OC(F)(F)F)cc2)[C@H]1c1ccc(CO)cc1
2. CC(C)N1C(=O)C[C@@](C(=O)NCCN2CCOCC2)(c2ccc([N+](=O)[O-])cc2)[C@H]1c1ccc(CO)cc1

**A:**
[0.462, 0.16]

Would you be so kind as to report composite z-score for each listed record?
1. C=CCOC(=O)[C@H]1[C@@H]2C(=O)O[C@@H](c3ccccc3)[C@@H](c3ccccc3)N2[C@@H](c2ccc(OCCOC(=O)[C@@H]3C[C@@H]4C(=O)N[C@@H](CCCC[N+](C)(C)C)C(=O)N4[C@@H]3c3ccc(O)cc3)cc2)[C@]12C(=O)Nc1ccc(I)cc12
2. O=C1C=C(c2ccccc2)C(=O)C2=C1CC([C@H]1Oc3ccccc3S(=O)(=O)N3CCC[C@@H]13)=CC2
3. COc1ccc([Si](C)(C)[C@H]2[C@H](CC(=O)N3CCC[C@H]3CO)O[C@@]3(C(=O)N(Cc4ccc(N5CCCCC5=O)cc4)c4ccccc43)[C@@H]2C)cc1
4. COC(=O)C1(Cc2ccccc2)C=C2C(=C(C)C(=O)C2C)CN1 (stereo not drawn)
5. COc1ccc(CCNC(=O)[C@@H]2c3ccccc3C(=O)N(Cc3ccccc3OC)[C@H]2c2ccc(CO)cc2)cc1
6. COC(=O)C(CC#Cc1ccc2c(c1)[C@]1(C(=O)N2)[C@H](c2ccc(OCCO)cc2)N2[C@H](c3ccccc3)[C@H](c3ccccc3)OC(=O)[C@H]2[C@@H]1C(=O)N1CCCCCCC1)C(=O)OC
7. CC(C)(C)N1CC=CC23O[C@@H]4C=CCOC(=O)[C@@H]4[C@H]2C(=O)N(CCO)[C@@H]3C1=O (stereo partly drawn)

**A:**
1: 0.723; 2: 0.718; 3: 0.704; 4: 1.43; 5: 0.414; 6: 1.64; 7: -0.545

Need composite z-score for each of these compounds.
1. C=C(CCCC)C(=O)CC[C@H](OC(=O)c1ccccc1-c1ccccc1C(=O)O)c1ccc(OCCO)cc1
2. CN(C)CCCC[C@@H]1NC(=O)[C@H]2C[C@@H](C(=O)O)[C@@H](c3ccc(O)cc3)N2C1=O
3. CO[C@H]1O[C@H](CO)[C@@H](OC(=O)Nc2ccccc2-c2ccccc2)[C@H](OC(=O)Nc2ccccc2)[C@H]1OC(=O)Nc1ccccc1
4. CC(C)c1nc2cc(Br)ccc2c(=O)o1
5. COCCOC(=O)N1C(=O)[C@@]2(c3cc(C#CCCO)ccc31)[C@H](c1ccc(OCCO)cc1)N1[C@H](c3ccccc3)[C@H](c3ccccc3)OC(=O)[C@H]1[C@@H]2C(=O)N1CCCCCCC1
6. C=C(COC)/C(=C/C[C@@H](OC(C)=O)c1ccccc1OCCO)c1cnc2ccccc2c1
7. COC(=O)C(CC#Cc1ccc2c(c1)[C@]1(C(=O)N2)[C@H](C(=O)NC[C@H](O)c2ccccc2)[C@H]2C(=O)O[C@H](c3ccccc3)[C@H](c3ccccc3)N2[C@@H]1c1ccccc1OCCO)C(=O)OC

**A:**
1. 1.09
2. 1.98
3. 0.352
4. -0.585
5. 1.73
6. 1.78
7. 0.205
